Origin of values: patent US7064122B2

target: type VI-S porcine pancreatic lipase (Sus scrofa, UniProt P00591); construct: purchased Sigma type VI-S (catalogue number not given); assay: Pancreatic lipase assay (pH-stat titration, triolein substrate); assay type: biochemical; settings: 7.0 nM lipase, 700 nM inhibitor, pH 8.0; k fitted for the 12.5 min after inhibitor addition, Y=Ymax*(1-exp(-k*X))
Sequence (P00591 whole entry): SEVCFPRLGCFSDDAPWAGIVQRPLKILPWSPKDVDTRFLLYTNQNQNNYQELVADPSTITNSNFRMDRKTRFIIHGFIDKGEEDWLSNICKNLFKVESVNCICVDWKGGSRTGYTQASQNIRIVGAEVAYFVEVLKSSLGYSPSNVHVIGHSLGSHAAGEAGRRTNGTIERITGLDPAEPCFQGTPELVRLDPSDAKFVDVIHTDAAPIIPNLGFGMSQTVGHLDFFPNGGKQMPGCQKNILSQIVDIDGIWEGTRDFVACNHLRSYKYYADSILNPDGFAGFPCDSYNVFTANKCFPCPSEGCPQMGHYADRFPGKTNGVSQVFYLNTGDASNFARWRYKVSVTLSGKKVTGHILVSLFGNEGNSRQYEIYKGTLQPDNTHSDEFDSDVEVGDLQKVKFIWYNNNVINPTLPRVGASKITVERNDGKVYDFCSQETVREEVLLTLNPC
So I've got a bunch of molecules here, and I need their k values.

{"molecule": "CCCCCCN(C)c1nc2sc(C(=O)OCc3ccccc3)c(C)c2c(=O)o1", "measured attribute": "k", "recorded value": "0.070 10-3.s-1"}
{"molecule": "CCCCCCCCNC(=O)c1sc2nc(OCCCCCCCC)oc(=O)c2c1C", "measured attribute": "k", "recorded value": "1.548 10-3.s-1"}
{"molecule": "CCCCCCCCNc1nc2sc(C(=O)NCc3ccc(OC)c(OC)c3)c(C)c2c(=O)o1", "measured attribute": "k", "recorded value": "1.027 10-3.s-1"}
{"molecule": "CCCCCCCCNc1nc2sc(C(=O)NC)c(C)c2c(=O)o1", "measured attribute": "k", "recorded value": "0.777 10-3.s-1"}

For each of the molecules below, state k.
1. CCCCCCCCOC(=O)c1sc2nc(OC(C)C)oc(=O)c2c1C
2. CCCCCCCCNc1nc2sc(C(=O)NCc3ccccc3)c(C)c2c(=O)o1
3. CCCCCCCCNc1nc2sc(C(=O)OC(CCCC)CCCC)c(C)c2c(=O)o1
4. CCCCCCCCOc1nc2sc(CCCCCCC)c(C)c2c(=O)o1
5. CCCCCCCCNc1nc2sc(C(=O)NCc3ccc4c(c3)OCO4)c(C)c2c(=O)o1
6. CCCCCCCCNc1nc2sc(C(=O)N3CCC(Cc4ccccc4)CC3)c(C)c2c(=O)o1
7. CCCCCCCCCCCCCCCCNc1nc2sc(C(=O)NCCCCCCCC)c(C)c2c(=O)o1

### Response
["0.438 10-3.s-1", "1.079 10-3.s-1", "1.253 10-3.s-1", "0.422 10-3.s-1", "1.137 10-3.s-1", "0.009 10-3.s-1", "1.709 10-3.s-1"]

For each of the molecules below, state k.
1. CCCCCCCCCCCCCCCCNC(=O)c1sc2nc(NCCCCCCCC)oc(=O)c2c1C
2. CCCCCCCCOc1nc2scc(C)c2c(=O)o1
3. CCCCCCCCNc1nc2sc(C(=O)N(CCCCCC)CCCCCC)c(C)c2c(=O)o1
4. CCCCCCCCCCNC(=O)c1sc2nc(NCCCCCCCC)oc(=O)c2c1C
5. CCCCCCCCNc1nc2sc(C(=O)OCc3ccccc3)c(C)c2c(=O)s1
6. CCCCCCCCOc1nc2sc(C(C)C)cc2c(=O)o1

### Response
["0.433 10-3.s-1", "0.893 10-3.s-1", "1.123 10-3.s-1", "0.998 10-3.s-1", "0.114 10-3.s-1", "1.288 10-3.s-1"]

For each of the molecules below, state k.
1. CCCCCCCNC(=O)N(CCCCCCC)c1nc2sc(C(=O)OCc3ccccc3)c(C)c2c(=O)o1
2. CCCCCCCCNc1nc2sc(C(=O)N3CCN(CC(=O)NC(C)C)CC3)c(C)c2c(=O)o1
3. CCCCCCCCNc1nc2sc(C(=O)N3CCN(Cc4ccccc4)CC3)c(C)c2c(=O)o1
4. CCCCCCCCNc1nc2sc(C(=O)NCc3ccccn3)c(C)c2c(=O)o1
5. CCCCCCCCNC(=O)N(CCCCCCCC)c1nc2sc(C(=O)OCc3ccccc3)c(C)c2c(=O)o1

### Response
1: 0.459 10-3.s-1; 2: 0.176 10-3.s-1; 3: 0.110 10-3.s-1; 4: 0.864 10-3.s-1; 5: 0.414 10-3.s-1
